ASSAY_PROCEDURE: Pharmacokinetics and oral bioavailability of D11.2 in male SD rats (IV, PO, SQ)
Format: in vivo
EXPERIMENTAL_PARAMETERS: male, Sprague Dawley, rat, plasma, iv, 1 mg/kg, IV 1 mg/kg, Mean
Where a SMILES comes first, the peptide text is derived from it. [ ]: non-standard residue; d: D form. NMeL = CN[C@@H](CC(C)C)C(=O)O; Sar = CNCC(=O)O
METRIC: AUC(0-inf) (ng·h/mL)
Number in ng·h/mL, nothing else.

Input CC[C@@H](C)[C@H]1NC(=O)[C@@H]2CCCN2C(=O)[C@@H]([C@H](C)CC)NC(=O)CN(C)C(=O)[C@H](CC(C)C)NC(=O)[C@@H](Cc2ccccc2)NC(=O)[C@H](CC(C)C)N(C)C(=O)[C@H]2CCCN2C(=O)[C@@H](CC(C)C)NC(=O)[C@H](CC(C)C)NC(=O)[C@H]2CCCN2C1=O [Design D11.2] (cyclo(L[Sar][dI]P[dI][dP]L[dL][dP][NMeL][dF])) . Output AUC(0-inf): 780

###

ASSAY_PROCEDURE: Pharmacokinetics and oral bioavailability of D8.3.p1 and D10.1 in Balb/C female mice (PO, SQ, IV)
Assay type: in vivo
EXPERIMENTAL_PARAMETERS: female, Balb/C, mouse, plasma, sc; D10.1 SQ 12.2 mg/kg, mean n=3; read-out: AUC0-t (converted)
METRIC: AUC(0-t) (µM·h)
Number in µM·h, nothing else.

Input CC[C@H](C)[C@@H]1NC(=O)[C@@H](CC(C)C)NC(=O)[C@H](CC(C)C)N(C)C(=O)[C@H](Cc2ccccc2)NC(=O)CN(C)C(=O)[C@@H]2CCCN2C(=O)[C@H](C(C)C)NC(=O)[C@H](Cc2ccccc2)N(C)C(=O)[C@H]2CCCN2C(=O)[C@H](CC(C)C)NC1=O [Design D10.1] . Output AUC(0-t): 31.3

###

ASSAY_PROCEDURE: Pharmacokinetics and oral bioavailability of D11.3 in male Swiss albino mice (IV, PO, SQ)
Type: in vivo
EXPERIMENTAL_PARAMETERS: mouse, in vivo; SC 5.00 mg/kg; read-out: MRT0-last
Where a SMILES comes first, the peptide text is derived from it. [ ]: non-standard residue; d: D form. dNMeI = CC[C@@H](C)[C@@H](NC)C(=O)O; NMeL = CN[C@@H](CC(C)C)C(=O)O
METRIC: MRT last (h)
Number in h, nothing else.

Input CC[C@@H](C)[C@H]1NC(=O)[C@H]([C@@H](C)CC)NC(=O)[C@H](CC(C)C)N(C)C(=O)[C@H]2CCCN2C(=O)[C@@H]([C@H](C)CC)NC(=O)[C@@H]([C@H](C)CC)N(C)C(=O)[C@H](CC(C)C)NC(=O)[C@H]2CCCN2C(=O)[C@@H]2CCCN2C(=O)[C@H](C(C)C)NC(=O)[C@H]2CCCN2C1=O [Design D11.3] (cyclo(I[dI][dP]VP[dP]L[dNMeI][dI][dP][NMeL])) . Output MRT last: 10.7

###

In this section we review reported PAMPA_R1 values for a set of compounds.
EXPERIMENTAL_PARAMETERS: PAMPA
Where a SMILES comes first, the peptide text is derived from it. [ ]: non-standard residue; d: D form. NMeL = CN[C@@H](CC(C)C)C(=O)O; Nle = CCCC[C@H](N)C(=O)O; dNMeA = CN[C@H](C)C(=O)O
Answer field: number only, no words.

Study these solved cases before continuing.
{"columns": ["COMPOUND", "PAMPA_R1"],
 "data": [
  ["CC[C@@H](C)[C@H]1NC(=O)[C@@H](CC(C)C)N(C)C(=O)[C@@H]2CCCN2C(=O)[C@H]([C@@H](C)CC)NC(=O)[C@H]([C@@H](C)CC)N(C)C(=O)[C@@H](CC(C)C)NC(=O)[C@@H](C(C)C)N(C)C(=O)[C@H]2CCCN2C(=O)[C@@H](C(C)C)NC(=O)[C@@H]2CCCN2C(=O)[C@H]([C@@H](C)CC)NC1=O (single isomer, unassigned) [Design D11.23.p2]", "1.49E-06"],
  ["CC(C)C[C@@H]1NC(=O)[C@H](Cc2ccccc2)NC(=O)[C@@H](CC(C)C)NC(=O)[C@H]2CCCN2C(=O)[C@H](C(C)C)NC(=O)[C@@H](CC(C)C)NC(=O)[C@H]2CCCN2C(=O)[C@@H]2CCCN2C1=O [Design D8.5.p2, PHE LEU PRO DPRO DLEU VAL DPRO DLEU] (cyclo(FLP[dP][dL]V[dP][dL]))", "5.46E-06"]
]}

Input CCCC[C@@H]1NC(=O)[C@@H](C)N(C)C(=O)[C@@H]2CCCN2C(=O)[C@@H](CC(C)C)NC(=O)[C@H](CC(C)C)N(C)C(=O)[C@H]2CCCN2C(=O)[C@H](CC(C)C)NC(=O)[C@@H](CC(C)C)NC(=O)[C@@H](C)NC1=O [Design D9.28] (cyclo(L[dP][NMeL][dL]P[dNMeA][Nle][dA][dL])) . Output PAMPA_R1: 1.84E-06
